Values were extracted from patent US9023398B2.

Below, each of the compounds is paired with its reported Dissolved amount value.
- PROTOCOL_SUMMARY: Dissolution test of poorly-soluble substances using 2nd fluid for disintegration test (pH 6.8) of the Japanese Pharmacopoeia
- Assay type: physicochemical
- RUN_PARAMETERS: 2nd fluid for disintegration test; elution time 360 min
// return numeric value only (unit: µg/mL, not printed)

CC(=O)Nc1nnc(S(N)(=O)=O)s1 [compound 23, Acetazolamide] = 1654.9
CN/C(=N/CCSCc1nc[nH]c1C)NC#N = 8810.0
CC[C@H]1OC(=O)[C@H](C)[C@@H](O[C@H]2C[C@@](C)(OC)[C@@H](O)[C@H](C)O2)[C@H](C)[C@@H](O[C@@H]2O[C@H](C)C[C@H](N(C)C)[C@H]2O)[C@](C)(O)C[C@@H](C)C(=O)[C@H](C)[C@@H](O)[C@]1(C)O = 6044.7

Would you kindly look at the next entry?
Task: Entry under review: NC(N)=Nc1nc(CSCCC(N)=NS(N)(=O)=O)cs1 . Reported Dissolved amount?
Output: 2410.4
